System: SNB-19 CNS
Assay: NCI-60 one-dose screen, 48 h (100 = growth as untreated, 0 = no growth, -100 = all killed)
Settings: 10 µM unless noted
About 83,000 compounds went through this panel and 20% of them were active in at least one assay; those are over-represented in the sample as a whole. Activity calls are given as the source filed them. Rule for the calls: active = growth percent below 10; inactive = the rest.
Endpoint label: growth

Use the examples below as a reference point.
>  <Molecule>
O=C(Cc1ccc(/C=C/C(=O)c2ncc[nH]2)cc1)Nc1ccc(S(F)(F)(F)(F)F)cc1

>  <growth>
75.9% (inactive)

$$$$
>  <Molecule>
C=CC(=O)N1CCC[C@H](n2c(=O)n(-c3ccc(Oc4ccccc4)cc3)c3c(N)ncnc32)C1

>  <growth>
79.1% (inactive)

$$$$
>  <Molecule>
CCc1nc2cc(/C=C/C(=O)NO)ccc2c(=O)n1CCc1ccc(F)cc1

>  <growth>
23.6% (inactive)

$$$$

Prompt: I have this molecule here, `Cc1cccc(NC(=O)[C@@H]2c3ccccc3C(=O)N(c3ccc(Cl)cc3)[C@H]2c2ccc(Cl)cc2)n1` , and I need its recorded growth.
Completion: 67.5% (inactive)

Prompt: Same read-out for `COc1cc2nccc(Oc3ccc(NC(=O)Nc4cc(C)on4)c(Cl)c3)c2cc1OC` ?
Completion: 32.8% (inactive)

Prompt: Same read-out for `CO[C@@H](C(=O)N1Cc2[nH]nc(NC(=O)c3ccc(N4CCN(C)CC4)cc3)c2C1)c1ccccc1` ?
Completion: 28.3% (inactive)

Prompt: Same read-out for `CC(C)n1c(NCCc2ccc(O)c(O)c2)nc2c1c(=O)n(C)c(=O)n2C` ?
Completion: 101% (inactive)

Prompt: Same read-out for COC(=O)[C@H](Cc1ccccc1)NC(=O)[C@@H](OC)[C@@H]1Cc2cc3cc(OC4CC(OC5CC(O)C(O)C(C)O5)C(O)C(C)O4)c(C)c(O)c3c(O)c2C(=O)[C@H]1OC1CC(OC2CC(OC3CC(C)(O)C(O)C(C)O3)C(O)C(C)O2)C(O)C(C)O1 (stereo partly drawn) ?
Completion: 4.82% (active)

====

System: OVCAR-4 ovarian
Assay: NCI-60 one-dose screen, 48 h
Conditions: 10 µM unless noted
This is part of a sample that, as a whole, favours compounds with a hit. Of some 83,000 tested, about 20% had one in any assay. Calls of active or inactive are those of the source. The calls were made as follows: active = growth percent below 10; inactive = the rest.
Choose one outcome from this list and give only that: active, inactive

>  <Compound>
CC[C@H](Nc1ncnc2nc[nH]c12)c1nc2cccc(F)c2c(=O)n1-c1ccccc1

>  <Assay target>
OVCAR-4 ovarian

>  <Assigned class>
inactive

$$$$
>  <Compound>
COC(=O)[C@H](C)NC(=O)[C@@H](OC)[C@@H]1Cc2cc3cc(OC4CC(OC5CC(O)C(O)C(C)O5)C(O)C(C)O4)c(C)c(O)c3c(O)c2C(=O)[C@H]1OC1CC(OC2CC(OC3CC(C)(O)C(O)C(C)O3)C(O)C(C)O2)C(O)C(C)O1 (some centres undefined)

>  <Assay target>
OVCAR-4 ovarian

>  <Assigned class>
active

$$$$
>  <Compound>
Nc1ccc(S(=O)(=O)O)c2cc(S(=O)(=O)O)cc(O)c12

>  <Assay target>
OVCAR-4 ovarian

>  <Assigned class>
inactive

$$$$
>  <Compound>
Cc1ccc2oc(=O)cc(-c3cc(-c4cc5ccccc5oc4=O)nc(N)c3C#N)c2c1

>  <Assay target>
OVCAR-4 ovarian

>  <Assigned class>
active

$$$$

Prompt: Dear colleague, could you share the recorded outcome for `Cn1cc(-c2ccc(F)c(C(F)(F)F)c2)nc1C1CCN(c2ncnc3[nH]ncc23)CC1` when you have a moment?
Completion: inactive

Prompt: Same read-out for `CN(C)C/C=C/C(=O)Nc1cc2c(Nc3ccc(F)c(Cl)c3)ncnc2cc1O[C@H]1CCOC1` ?
Completion: inactive

Prompt: Same read-out for `C=C1C(=O)O[C@H]2[C@H]1CC/C(CNC(=O)c1cc3cc(OC)ccc3[nH]1)=C\CC[C@@]1(C)O[C@@H]21` ?
Completion: active

====

System: SK-OV-3 ovarian
Assay: NCI-60 one-dose screen, 48 h (100 = growth as untreated, 0 = no growth, -100 = all killed)
Details: 10 µM unless noted
Compounds without any hit were thinned out: in the full panel of roughly 83,000, 20% have a hit.
Reported growth values for the following molecules.
Give the value, in units of %, as a plain number.

Use the examples below as a reference point.
>  <Molecule>
O=C(COc1cccc(/C=C2\Cc3ccc(Cl)cc3C2=O)c1)Nc1nccs1

>  <Units symbol>
%

>  <growth>
96

$$$$
>  <Molecule>
CSc1nc2ncncc2[nH]1

>  <Units symbol>
%

>  <growth>
113

$$$$
>  <Molecule>
C[C@@H](NC(=O)c1ncnc(N)c1Cl)c1ncc(C(=O)Nc2cc(C(F)(F)F)c(Cl)cn2)s1

>  <Units symbol>
%

>  <growth>
93.6

$$$$
>  <Molecule>
Cc1cc([C@@H](C)Nc2ccccc2C(=O)O)c2nc(N3CCOCC3)cc(=O)n2c1

>  <Units symbol>
%

>  <growth>
-13.2

$$$$
>  <Molecule>
Cc1cccc(Cl)c1NC(=O)c1cnc(Nc2cc(N3CCOCC3)cc(N3CCOCC3)c2)s1

>  <Units symbol>
%

>  <growth>
-38.7

$$$$
>  <Molecule>
Cc1cc(-c2cc(OC(=O)c3ccccc3)ccc2Cl)cc2nnc(Nc3ccc(OCCN4CCCC4)cc3)nc12

>  <Units symbol>
%

>  <growth>
52.6

$$$$
>  <Molecule>
Cc1nc(Nc2n[nH]c3c2CN(C(=O)N[C@H](CN(C)C)c2ccccc2)C3(C)C)c2sccc2n1

>  <Units symbol>
%

>  <growth>
-26.8

$$$$
>  <Molecule>
COc1cc2c(cc1OCCCN1Cc3ccc(OCCCCC(=O)N4CCC(CCN5CCCC5)CC4)cc3C1)N=C(N)C21CCCC1

>  <Units symbol>
%

>  <growth>
71.7

$$$$
>  <Molecule>
COc1ccc(Cl)c(Nc2nc3ccccc3nc2NS(=O)(=O)c2cccc(NC(=O)C(C)(C)N)c2)c1

>  <Units symbol>
%

>  <growth>
4.52

$$$$
>  <Molecule>
COc1ccc(C2OC(c3cc(-c4cc5ccccc5o4)nn3-c3ccccc3)=NN2C(C)=O)cc1 (centres undefined)

>  <Units symbol>
%

>  <growth>
103

$$$$

Prompt: I have this molecule here, `CC(=O)OCCC/C(=C\c1ccc2ccccc2c1)[N+](=O)[O-]` , and I need its recorded growth.
Completion: 57.9

Prompt: Same read-out for `Oc1ccc(/C=N/Nc2nnc(N/N=C/c3ccc(O)cc3O)c3ccccc23)c(O)c1` ?
Completion: -15.4

Prompt: Same read-out for `O=C(COc1ccc(/C=C2\Cc3ccc(Cl)cc3C2=O)cc1)Nc1nccs1` ?
Completion: 108

Prompt: Same read-out for `Cc1ccc(N)cc1CN1C(=O)c2ccccc2C1=O` ?
Completion: 94.2

Prompt: Same read-out for `C=CC(=O)Nc1cc(Nc2nccc(-c3cn(C)c4ccccc34)n2)c(OC)cc1N(C)CCN(C)C` ?
Completion: 15.4

====

Reported growth values for the following compounds.
Tested on: IGROV1 ovarian
Assay: NCI-60 one-dose screen, 48 h (100 = growth as untreated, 0 = no growth, -100 = all killed)
Settings: 10 µM unless noted
About 83,000 compounds went through this panel and 20% of them were active in at least one assay; those are over-represented in the sample as a whole.
Give the value, in units of %, as a plain number.

Use the examples below as a reference point.
>  <Compound>
COc1cc2nc(Nc3cccc(Cl)c3)nc(N)c2cc1OC

>  <Assay target>
IGROV1 ovarian

>  <growth [%]>
64.5

$$$$
>  <Compound>
Cc1nc(N)sc1-c1ccnc(Nc2ccc(N3CCOCC3)cc2)n1

>  <Assay target>
IGROV1 ovarian

>  <growth [%]>
12.3

$$$$
>  <Compound>
COc1cc(Nc2ncc(F)c(Nc3ccc4c(n3)N(COP(=O)(O)O)C(=O)C(C)(C)O4)n2)cc(OC)c1OC

>  <Assay target>
IGROV1 ovarian

>  <growth [%]>
-17.6

$$$$
>  <Compound>
Brc1ccc([I+]c2ccc(Br)cc2)cc1

>  <Assay target>
IGROV1 ovarian

>  <growth [%]>
26.2

$$$$
>  <Compound>
C=CCN1C(=O)c2cccc3c(-c4ccc5c(c4)ncn5C4CCCCC4)ccc(c23)C1=O

>  <Assay target>
IGROV1 ovarian

>  <growth [%]>
67.1

$$$$

Prompt: I have this compound here, `CNC(=O)c1cc(COc2nnc(Nc3ccc(Cl)cc3)c3ccoc23)ccn1` , and I need its recorded growth.
Completion: 24.7

Prompt: Same read-out for `CSc1nc2ncncc2[nH]1` ?
Completion: 76.1

Prompt: Same read-out for `CCOC(=O)C1=C(C)N=C2Sc3cc(OC(F)(F)F)ccc3N2[C@H]1c1ccccn1` ?
Completion: 39.8

Prompt: Same read-out for COc1c(C(NC(=O)c2ccccc2)c2sccc2C)cc(Cl)c2cccnc12 (centres undefined) ?
Completion: 106

Prompt: Same read-out for `O=C1NC(=O)C(c2cnc3ccccn23)=C1c1cn2c3c(cc(F)cc13)CN(C(=O)N1CCCCC1)CC2` ?
Completion: 53.3

Prompt: Same read-out for `Cc1c(Cn2c(C)nc3c(C(=O)O)cc(N4CCOCC4)cc32)cccc1C(F)(F)F` ?
Completion: 114

Prompt: Same read-out for `C[C@]12O[C@H](C[C@]1(O)CO)n1c3ccccc3c3c4c(c5c6ccccc6n2c5c31)CNC4=O` ?
Completion: -26.3

Prompt: Same read-out for Cc1ccccc1N1C(c2ccccc2)=NNC12C=CC(=O)C=C2Cl (centres undefined) ?
Completion: 100

Prompt: Same read-out for `O=C(c1ccc(F)c(F)c1Nc1ccc(I)cc1F)N1CC(O)([C@@H]2CCCCN2)C1` ?
Completion: 2.25

Prompt: Same read-out for `Cn1cc(-c2cnn3c(N)c(Br)c([C@@H]4CCCNC4)nc23)cn1` ?
Completion: 36.9

Prompt: Same read-out for `COc1cnc2c(c1)C(=O)c1c-2n(CCCN2CCC(N)CC2)c(=O)c2cc([N+](=O)[O-])ccc12` ?
Completion: 56

Data credit: PubChem BioAssay (NCI)
